The measured values listed here are drawn from patent US4000985A.

- assay.method.text: Rate and extent of dissolution in No. 1 and No. 2 Heating Oils at 25° C. (colorimetric)
- Format: physicochemical
- condition.label: No. 1 Fuel Oil, 1 Minute, 25° C., aminoazobenzene dyes (Table 4)
recorded.endpoint: Percent Dissolved (%)
Quick note: give the figure in %, leave out the unit.

Give the reported value of Percent Dissolved for this record: CCCCCCCCCCCCNc1ccc2ccccc2c1N=Nc1ccc(N=Nc2ccccc2)cc1 [Example 28]
2.85

For the compound CCCCCCCCNc1ccc2ccccc2c1N=Nc1ccc(N=Nc2ccccc2)cc1 [Example 24] , give its measured Percent Dissolved value.
12.05

Return the recorded Percent Dissolved value; entry: OCCOCCNc1ccc2ccccc2c1N=Nc1ccc(N=Nc2ccccc2)cc1 [Example 19]
0.06

Return reported Percent Dissolved. Input compound: CCCCCCNc1ccc2ccccc2c1N=Nc1ccc(N=Nc2ccccc2)cc1 [Example 20]
4.65

Give the value of Percent Dissolved reported for the following: c1ccc(N=Nc2ccc(N=Nc3c(NC4CCCCC4)ccc4ccccc34)cc2)cc1 [Example 21]
4.01

Give Percent Dissolved for CCNc1ccc2ccccc2c1N=Nc1ccc(N=Nc2ccccc2)cc1 [Example 16]
1.05

Give reported Percent Dissolved value for CCCCCCCCCCNc1ccc2ccccc2c1N=Nc1ccc(N=Nc2ccccc2)cc1 [Example 26]
4.97

Return Percent Dissolved (reported value) for this compound: CCCCCCCNc1ccc2ccccc2c1N=Nc1ccc(N=Nc2ccccc2)cc1 [Example 23]
4.92

Report Percent Dissolved for CCCCNc1ccc2ccccc2c1N=Nc1ccc(N=Nc2ccccc2)cc1 [Example 17]
1.99

Annotate the compound COCCCNc1ccc2ccccc2c1N=Nc1ccc(N=Nc2ccccc2)cc1 [Example 18] with its measured Percent Dissolved.
2.02

Find the measured Percent Dissolved of CCCCC(CC)CNc1ccc2ccccc2c1N=Nc1ccc(N=Nc2ccccc2)cc1 (stereo not drawn) [Example 2] and report it.
3.43

Entry CCOCCOCCCNc1ccc2ccccc2c1N=Nc1ccc(N=Nc2ccccc2)cc1 [Example 22] needs its Percent Dissolved filled in; supply it.
3.68
